pKi: −log10 of the molar value.
Observed pKi for Neuronal acetylcholine receptor subunit alpha-7 (Rattus norvegicus, UniProt Q05941), reported per entry below.

[
  {
    "Query smiles": "CCCc1ccc(/C=C2\\CCCN=C2c2cccnc2)cc1",
    "pKi": 6.55
  },
  {
    "Query smiles": "COc1cc(/C=C2\\CCCN=C2c2cccnc2)cc(OC)c1OC",
    "pKi": 5.46
  },
  {
    "Query smiles": "OCCN(CCO)c1ccc(/C=C2\\CCCN=C2c2cccnc2)cc1",
    "pKi": 6.72
  },
  {
    "Query smiles": "CC(=O)Oc1ccc(/C=C2\\CCCN=C2c2cccnc2)cc1",
    "pKi": 6.77
  },
  {
    "Query smiles": "CC(=O)Nc1ccc(/C=C2\\CCCN=C2c2cccnc2)cc1",
    "pKi": 6.62
  },
  {
    "Query smiles": "CN(C)c1ccc(/C=C2\\CCCN=C2c2cccnc2)cc1",
    "pKi": 7.10
  }
]

====

biological target: Neuronal acetylcholine receptor subunit alpha-7 (Rattus norvegicus); details: Brain, Membrane
Sequence (Q05941 whole entry): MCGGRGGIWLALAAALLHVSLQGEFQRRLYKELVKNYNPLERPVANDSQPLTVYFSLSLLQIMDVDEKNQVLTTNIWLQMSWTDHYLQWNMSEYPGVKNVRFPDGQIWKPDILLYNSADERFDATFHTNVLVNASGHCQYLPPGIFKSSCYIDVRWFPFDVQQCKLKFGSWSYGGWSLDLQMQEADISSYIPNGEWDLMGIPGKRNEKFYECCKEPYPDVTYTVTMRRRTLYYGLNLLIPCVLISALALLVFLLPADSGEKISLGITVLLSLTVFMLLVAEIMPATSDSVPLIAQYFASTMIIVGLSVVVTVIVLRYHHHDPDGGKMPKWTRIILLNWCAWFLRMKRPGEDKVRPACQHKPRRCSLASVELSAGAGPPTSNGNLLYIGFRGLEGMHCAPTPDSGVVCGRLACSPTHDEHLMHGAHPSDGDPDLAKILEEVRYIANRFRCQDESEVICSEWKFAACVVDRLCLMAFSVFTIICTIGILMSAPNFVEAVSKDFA
Description: Displacement of [125I]-alpha-bungarotoxin from alpha7 nAChR in rat brain membrane after 3 hrs
Outcome measure: log10 Ki (log10 of the value in nM)

[
  {
    "Query smiles": "C(=C1/CCCN=C1c1cccnc1)/c1ccc(-n2ccnn2)cc1",
    "Target entity": "Neuronal acetylcholine receptor subunit alpha-7 (Rattus norvegicus)",
    "log10 Ki": 1.86
  },
  {
    "Query smiles": "Cc1ccc(/C=C2\\CCCN=C2c2cccnc2)cc1",
    "Target entity": "Neuronal acetylcholine receptor subunit alpha-7 (Rattus norvegicus)",
    "log10 Ki": 2.56
  },
  {
    "Query smiles": "C(=C1/CCCN=C1c1cccnc1)/c1ccccc1",
    "Target entity": "Neuronal acetylcholine receptor subunit alpha-7 (Rattus norvegicus)",
    "log10 Ki": 2.35
  },
  {
    "Query smiles": "C(=C1/CCCN=C1c1cccnc1)/c1ccc2c(c1)OCO2",
    "Target entity": "Neuronal acetylcholine receptor subunit alpha-7 (Rattus norvegicus)",
    "log10 Ki": 2.80
  },
  {
    "Query smiles": "COc1ccc(/C=C2\\CCCN=C2c2cccnc2)c(OC)c1",
    "Target entity": "Neuronal acetylcholine receptor subunit alpha-7 (Rattus norvegicus)",
    "log10 Ki": 2.95
  },
  {
    "Query smiles": "C(=C1/CCCN=C1c1cccnc1)/c1ccc(N2CCOCC2)cc1",
    "Target entity": "Neuronal acetylcholine receptor subunit alpha-7 (Rattus norvegicus)",
    "log10 Ki": 2.72
  }
]

====

target: Neuronal acetylcholine receptor; alpha4/beta2 (Rattus norvegicus) (UniProt P09483+P12390); test: Displacement of [3H]cytisine from alpha4beta2 nAChR in rat brain membrane after 3 hrs; format: cell membranes
Please note: Ki exactly at 800 nM is criterion not met. Only values below 800 nM get criterion met.

[
  {
    "Query smiles": "COc1ccc(/C=C2\\CCCN=C2c2cccnc2)c(O)c1",
    "Class assignment": "criterion met"
  },
  {
    "Query smiles": "CN(C)c1ccc(/C=C2\\CCCN=C2c2cccnc2)cc1",
    "Class assignment": "criterion met"
  },
  {
    "Query smiles": "C(=C1/CCCN=C1c1cccnc1)/c1ccc2c(c1)OCO2",
    "Class assignment": "criterion met"
  },
  {
    "Query smiles": "CNc1ccc(/C=C2\\CCCN=C2c2cccnc2)cc1",
    "Class assignment": "criterion not met"
  },
  {
    "Query smiles": "CC(=O)Nc1ccc(/C=C2\\CCCN=C2c2cccnc2)cc1",
    "Class assignment": "criterion met"
  },
  {
    "Query smiles": "C(=C1/CCCN=C1c1cccnc1)/c1cc2ccccc2o1",
    "Class assignment": "criterion met"
  },
  {
    "Query smiles": "COc1cc(OC)c(/C=C2\\CCCN=C2c2cccnc2)c(OC)c1",
    "Class assignment": "criterion not met"
  },
  {
    "Query smiles": "COc1ccc2cc(/C=C3\\CCCN=C3c3cccnc3)ccc2c1",
    "Class assignment": "criterion met"
  },
  {
    "Query smiles": "FC(F)Oc1ccc(/C=C2\\CCCN=C2c2cccnc2)cc1",
    "Class assignment": "criterion met"
  },
  {
    "Query smiles": "CCN(CC)c1ccc(/C=C2\\CCCN=C2c2cccnc2)c(O)c1",
    "Class assignment": "criterion not met"
  },
  {
    "Query smiles": "CC(=O)Oc1ccc(/C=C2\\CCCN=C2c2cccnc2)cc1",
    "Class assignment": "criterion met"
  },
  {
    "Query smiles": "Oc1ccc(/C=C2\\CCCN=C2c2cccnc2)cc1",
    "Class assignment": "criterion met"
  }
]
